- tested_target: Melanocortin receptor 5 (Homo sapiens, UniProt P33032)
- Sequence (P33032 whole entry): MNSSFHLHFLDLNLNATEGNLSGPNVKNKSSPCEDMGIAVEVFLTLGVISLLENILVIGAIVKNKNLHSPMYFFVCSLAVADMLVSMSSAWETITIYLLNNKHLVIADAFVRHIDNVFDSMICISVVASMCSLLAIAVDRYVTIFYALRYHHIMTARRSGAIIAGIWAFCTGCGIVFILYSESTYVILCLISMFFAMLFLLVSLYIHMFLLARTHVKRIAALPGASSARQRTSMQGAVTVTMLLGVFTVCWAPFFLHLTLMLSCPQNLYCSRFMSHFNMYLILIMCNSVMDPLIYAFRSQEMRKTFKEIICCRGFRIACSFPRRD
- run_description: […] at human MC5R assessed as stimulation of cAMP production
experimental_endpoint: EC50 (nM)

Study these solved cases before continuing.
[
  {
    "molecule": "N#CCC1(C2CCCC2)CCN(C(=O)[C@H](Cc2ccc(Cl)cc2)NC(=O)[C@H]2Cc3ccccc3CN2)CC1",
    "value_measured": 630
  },
  {
    "molecule": "CCCCC1(CC#N)CCN(C(=O)[C@H](Cc2ccc(Cl)cc2)NC(=O)[C@H]2Cc3ccccc3CN2)CC1",
    "value_measured": 480
  }
]

P = CCCCCCC1(Cc2nnnn2C)CCN(C(=O)[C@H](Cc2ccc(Cl)cc2)NC(=O)[C@H]2Cc3ccccc3CN2)CC1
Q = CC(C)C1(CC#N)CCN(C(=O)[C@H](Cc2ccc(Cl)cc2)NC(=O)[C@H]2Cc3ccccc3CN2)CC1
Request: For this pair, P and Q , which shows a numerically higher EC50? # reply format: chosen label
Result: Q

I = Cn1nnnc1CC1(CC(C)(C)C)CCN(C(=O)[C@H](Cc2ccc(Cl)cc2)NC(=O)[C@H]2Cc3ccccc3CN2)CC1
II = CCC(C)C1(Cc2nnnn2C)CCN(C(=O)[C@H](Cc2ccc(Cl)cc2)NC(=O)[C@H]2Cc3ccccc3CN2)CC1 (stereo partly specified)
III = CN1CCN[C@@H](C(=O)N[C@@H](Cc2ccc(F)cc2)C(=O)N2CCC(C(=O)NC(C)(C)C)(C3CCC(C)(C)CC3)CC2)C1
IV = CN1CCN[C@@H](C(=O)N[C@@H](Cc2ccc(F)cc2)C(=O)N2CCC(C(=O)NC(C)(C)C)(C3(C)CCCCC3)CC2)C1
Request: Sequence the entries by EC50, beginning with the highest number. Please express your ranking as an ordered list of the labels.
Result: IV, III, I, II
(IV: 1980 nM, III: 1120 nM, I: 380 nM, II: 250 nM)

1 = Cn1nnnc1CC1(c2ccc(Cl)cc2)CCN(C(=O)[C@H](Cc2ccc(Cl)cc2)NC(=O)[C@H]2Cc3ccccc3CN2)CC1
2 = Cn1nnnc1CC1(C2CCCCC2)CCN(C(=O)[C@H](Cc2ccc(Cl)cc2)NC(=O)[C@H]2Cc3ccccc3CN2)CC1
3 = CN1CCN[C@@H](C(=O)N[C@@H](Cc2ccc(F)cc2)C(=O)N2CCC(C(=O)NC(C)(C)C)(C3CCCCC3)CC2)C1
Request: Sequence the entries by EC50, beginning with the highest number. Please express your ranking as an ordered list of the labels.
Result: 3, 1, 2
(3: 977 nM, 1: 527 nM, 2: 222 nM)
